The measurements presented in this section are drawn from PubChem BioAssay.

# assay_explanation: probe aXIP binding to arrayed compounds – biochemical, NeuroSMM set, 635/667 nm fluorescence, primary screen (AID 1119);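 note: probe is the protein aXip251-270 applied at 1 µg/mL to compound-printed slides; binding of probe to printed compounds measured as 667 nm fluorescence plus signal to noise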
# experimental_parameters: small-molecule microarray, higher = more signal, called active from +8 up or from −8 down
Active and inactive are the calls of the source.
Entries and their composite Z-score values follow.

[[record]]
compound = "O=C1C[C@@](C(=O)NCc2ccccc2)(c2ccc([N+](=O)[O-])cc2)[C@@H](c2ccc(CO)cc2I)N1C1CCCCC1"
result = "-0.0966 (inactive)"

[[record]]
compound = "COc1ccc([Si](C)(C)[C@@H]2[C@@H](CC(=O)N(CCO)Cc3ccccc3)O[C@]3(C(=O)N(C)c4c(Br)cc(C)cc43)[C@H]2C)cc1"
result = "0.0128 (inactive)"

[[record]]
compound = "O=C1OCC=C[C@H]2OC34C=CCN(CCN5CCOCC5)C(=O)[C@H]3N(CCCCCO)C(=O)[C@@H]4[C@@H]12 (some centres undefined)"
result = "-0.232 (inactive)"

[[record]]
compound = "O=C(N1CCOCC1)[C@@]1(CCS(=O)(=O)c2ccccc2)COC(c2ccc(OCCCO)cc2)=N1"
result = "0.667 (inactive)"

[[record]]
compound = "COC(=O)c1ccc(OC)c(/C=C\\CC(CCc2ccccc2)OC(C)=O)c1 (centres undefined)"
result = "-0.376 (inactive)"

[[record]]
compound = "O=C1OCCC=C[C@H]2OC34C=CCN(Cn5nnc6ccccc65)C(=O)[C@H]3N(CCCCCO)C(=O)[C@@H]4C12 (some centres undefined)"
result = "0.266 (inactive)"

[[record]]
compound = "C=CCNC(=O)[C@H]1[C@@H]2C(=O)O[C@@H](c3ccccc3)[C@@H](c3ccccc3)N2[C@@H](c2ccc(O)cc2)[C@]12C(=O)N(C(=O)OCCOC)c1ccc(C#CC3(O)CCCCCC3)cc12"
result = "0.282 (inactive)"

[[record]]
compound = "CCCNC(=O)[C@@H]1c2ccccc2C(=O)N(CC23CC4CC(CC(C4)C2)C3)[C@H]1c1ccc(CO)cc1"
result = "0.39 (inactive)"


Query: Give the measured composite Z-score of CCCCC(=C=CC[C@H](O)c1cccc(OCCO)c1)C[C@H](O)COCc1ccccc1 .
Response: 0.11 (inactive)

Query: // repeat for [N-]=[N+]=Nc1ccccc1[C@@H]1OC(c2ccc(OCCCO)cc2)=N[C@]1(CCS(=O)(=O)c1ccccc1)C(=O)NCc1ccccc1 and report
Response: 1.08 (inactive)

Query: // repeat for O=C1O[C@@H](c2ccccc2)[C@@H](c2ccccc2)N2[C@@H](c3ccc(O)cc3)[C@]3(C(=O)Nc4ccc(C#CC5(O)CCCCCC5)cc43)[C@@H](C(=O)N3CCN(c4ncccn4)CC3)[C@H]12 and report
Response: 0.95 (inactive)
